B1: Cytoplasmic polyadenylation element-binding protein 2, residues 513 to 575; numbered along this chain, Q7Z5Q1 (parent)
chain: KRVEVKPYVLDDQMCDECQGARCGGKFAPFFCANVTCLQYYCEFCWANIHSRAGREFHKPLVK

- Variants of: B1
- Procedure Summary: abundance fitness (aPCA) (normalised: wild type 0, dead -1); higher = more abundant; growth selection in yeast, the domain comes from the species named
- Condition Notes: Homo sapiens
Property: abundance fitness

>  <Residue Change>
C18W

>  <Measured Result>
-1.07

$$$$
>  <Residue Change>
P60V

>  <Measured Result>
-0.331

$$$$
>  <Residue Change>
G24S

>  <Measured Result>
-0.046

$$$$
>  <Residue Change>
L38W

>  <Measured Result>
0.022

$$$$
>  <Residue Change>
C23W

>  <Measured Result>
-0.424

$$$$
>  <Residue Change>
L61D

>  <Measured Result>
0.04

$$$$
>  <Residue Change>
G20W

>  <Measured Result>
-0.686

$$$$
>  <Residue Change>
C23E

>  <Measured Result>
-0.153

$$$$
>  <Residue Change>
L61S

>  <Measured Result>
0.12

$$$$
>  <Residue Change>
A47H

>  <Measured Result>
-0.17

$$$$
>  <Residue Change>
L61M

>  <Measured Result>
0.012

$$$$
>  <Residue Change>
S51F

>  <Measured Result>
-0.239

$$$$
>  <Residue Change>
Y8W

>  <Measured Result>
-0.091

$$$$
>  <Residue Change>
G54M

>  <Measured Result>
-0.299

$$$$
>  <Residue Change>
K6M

>  <Measured Result>
-0.028

$$$$
>  <Residue Change>
K6L

>  <Measured Result>
-0.297

$$$$
>  <Residue Change>
N48S

>  <Measured Result>
0.032

$$$$
>  <Residue Change>
C15K

>  <Measured Result>
-0.649

$$$$
>  <Residue Change>
V3A

>  <Measured Result>
0.059

$$$$
>  <Residue Change>
E17N

>  <Measured Result>
-0.128

$$$$
>  <Residue Change>
P29S

>  <Measured Result>
0.009

$$$$
>  <Residue Change>
C42E

>  <Measured Result>
-0.951

$$$$
>  <Residue Change>
K59P

>  <Measured Result>
-0.247

$$$$
>  <Residue Change>
E17C

>  <Measured Result>
-0.006

$$$$
>  <Residue Change>
Y8T

>  <Measured Result>
-0.026

$$$$
>  <Residue Change>
V5N

>  <Measured Result>
0.048

$$$$
>  <Residue Change>
K63G

>  <Measured Result>
0.1

$$$$
>  <Residue Change>
V35M

>  <Measured Result>
-0.334

$$$$
>  <Residue Change>
M14C

>  <Measured Result>
-0.104

$$$$
>  <Residue Change>
K1Y

>  <Measured Result>
-0.236

$$$$
>  <Residue Change>
G25I

>  <Measured Result>
-0.538

$$$$
>  <Residue Change>
M14H

>  <Measured Result>
-0.33

$$$$
>  <Residue Change>
G20S

>  <Measured Result>
-0.363

$$$$
>  <Residue Change>
Q19L

>  <Measured Result>
0.075

$$$$
>  <Residue Change>
C23Y

>  <Measured Result>
-0.38

$$$$
>  <Residue Change>
Y8A

>  <Measured Result>
0.01

$$$$
>  <Residue Change>
Q19M

>  <Measured Result>
-0.091

$$$$
>  <Residue Change>
F30T

>  <Measured Result>
-0.188

$$$$
>  <Residue Change>
F30K

>  <Measured Result>
0.037

$$$$
>  <Residue Change>
L10N

>  <Measured Result>
0.005

$$$$
>  <Residue Change>
G24K

>  <Measured Result>
-0.068

$$$$
>  <Residue Change>
C18N

>  <Measured Result>
-0.748

$$$$
>  <Residue Change>
C15F

>  <Measured Result>
-0.588

$$$$
>  <Residue Change>
F44E

>  <Measured Result>
0.033

$$$$
>  <Residue Change>
V35I

>  <Measured Result>
-0.088

$$$$
>  <Residue Change>
F44L

>  <Measured Result>
0.007

$$$$

// data source = the Human Domainome abundance scans (Beltran et al. 2025)
